Numbers sourced from patent US20230233569A1.

Would you mind telling me the reported pIC50 of each entry?
molecular target: KRAS G12C (Homo sapiens, UniProt P01116+P62937, G12C); assay: Disruption of BRAF RBD interaction with Ras (FRET / MOA assay, with Cyclophilin A); type: biochemical; conditions: read-out: KRAS G12C FRET data, IC50
Sequence (P01116 1-169 isoform P01116-2 G12C): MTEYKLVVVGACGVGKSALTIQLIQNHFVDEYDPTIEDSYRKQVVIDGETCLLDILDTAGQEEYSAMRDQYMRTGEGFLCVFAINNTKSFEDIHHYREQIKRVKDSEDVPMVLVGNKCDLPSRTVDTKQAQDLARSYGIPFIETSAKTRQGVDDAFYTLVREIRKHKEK
Sequence (P62937 whole entry): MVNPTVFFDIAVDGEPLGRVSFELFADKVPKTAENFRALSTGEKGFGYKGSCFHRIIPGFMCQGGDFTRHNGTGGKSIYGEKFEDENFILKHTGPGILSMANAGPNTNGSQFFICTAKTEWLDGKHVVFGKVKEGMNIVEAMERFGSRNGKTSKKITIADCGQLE
pIC50: −log10 of the molar value.

Answer for every listed entry: what is its pIC50? The entries follow.
1. CCn1c(-c2cccnc2[C@H](C)OC)c2c3cc(ccc31)-c1csc(n1)C[C@H](NC(=O)[C@H](C(C)C)N(C)C(=O)N1CCN(C)CC1)C(=O)N1CCC[C@H](N1)C(=O)OCC(C)(C)C2 [Example A570]
2. CCn1c(-c2cccnc2[C@H](C)OC)c2c3cc(ccc31)-c1cc(O)cc(c1)C[C@H](NC(=O)[C@H](C(C)C)N(C)C(=O)[C@H]1C[C@H](O)C1)C(=O)N1CCC[C@H](N1)C(=O)OCC(C)(C)C2 [Example A241]
3. CCn1c(-c2cccnc2[C@H](C)OC)c2c3cc(ccc31)-c1csc(n1)C[C@H](NC(=O)[C@H](C(C)C)N(C)C(=O)N(C)[C@@H]1CCCN(C)C1)C(=O)N1CCC[C@H](N1)C(=O)OCC(C)(C)C2 [Example A587]
4. CCn1c(-c2cccnc2[C@H](C)OC)c2c3cc(ccc31)-c1csc(n1)C[C@H](NC(=O)[C@H]1C[C@@H]1C)C(=O)N1CCC[C@H](N1)C(=O)OCC(C)(C)C2 [Example A286]
5. CCn1c(-c2cccnc2[C@H](C)OC)c2c3cc(ccc31)-c1csc(n1)C[C@H](NC(=O)[C@H](C(C)C)N(C)C(=O)N1CCOCC1)C(=O)N1CCC[C@H](N1)C(=O)OCC(C)(C)C2 (atropisomer, axis not shown) [Example A372]
6. CCn1c(-c2cccnc2[C@H](C)OC)c2c3cc(ccc31)-c1cccc(c1)C[C@H](NC(=O)[C@H](C(C)C)N(C)C(=O)[C@H]1CCN(C(C)=O)C1)C(=O)N1CCC[C@H](N1)C(=O)OCC(C)(C)C2 [Example A60]
7. CCn1c(-c2cccnc2[C@H](C)OC)c2c3cc(ccc31)-c1csc(n1)C[C@H](NC(=O)[C@H](C(C)C)N(C)C(=O)N1CC(C)(OC)C1)C(=O)N1CCC[C@H](N1)C(=O)OCC(C)(C)C2 [Example A299]

Reply |
["6.00 to 7.00", "7.00 to 8.00", "6.00 to 7.00", "6.00 to 7.00", "7.00 to 8.00", "5.00 to 6.00", "6.00 to 7.00"]
